# activity per entry
# assay.system: Nuclear receptor subfamily 1 group D member 1 (Homo sapiens) (UniProt P20393)
# Sequence (P20393 whole entry, looked up): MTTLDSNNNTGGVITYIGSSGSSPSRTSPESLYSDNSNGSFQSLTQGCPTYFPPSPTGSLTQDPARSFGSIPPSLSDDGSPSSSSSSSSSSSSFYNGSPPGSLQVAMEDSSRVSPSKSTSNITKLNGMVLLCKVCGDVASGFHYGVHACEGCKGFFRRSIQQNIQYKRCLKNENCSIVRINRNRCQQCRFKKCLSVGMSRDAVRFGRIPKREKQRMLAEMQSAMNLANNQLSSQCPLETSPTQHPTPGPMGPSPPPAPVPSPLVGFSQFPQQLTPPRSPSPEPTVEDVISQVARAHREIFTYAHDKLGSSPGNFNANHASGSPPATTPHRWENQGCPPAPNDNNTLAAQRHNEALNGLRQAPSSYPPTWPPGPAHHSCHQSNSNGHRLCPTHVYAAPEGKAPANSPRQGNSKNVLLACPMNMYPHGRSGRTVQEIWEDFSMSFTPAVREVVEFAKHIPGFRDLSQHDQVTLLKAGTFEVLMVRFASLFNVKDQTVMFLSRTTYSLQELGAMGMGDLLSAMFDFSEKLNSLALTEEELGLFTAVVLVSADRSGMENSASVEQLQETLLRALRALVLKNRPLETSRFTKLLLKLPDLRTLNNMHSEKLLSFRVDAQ
# assay.notes: modulators of Rev-erb alpha DNA binding, primary screen, biochemical, FITC-DNA, fluorescence polarization, uHTS (AID 1259318);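 note: 0% = DMSO wells with 35 nM protein and 100% = DMSO wells with 750 nM protein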
# particulars: Rev-erbα–FITC-DNA binding, 90 min, at 10 µM, stronger effect = higher value
Screen size: about 370,000 compounds; about 3,000 (0.81%) were called active. The sample as a whole holds a higher share of actives than the screen did.
State just the number; it will be interpreted in %.

- CS(=O)(=O)c1ccc(Cl)c(NC(=O)COC(=O)c2ncc(Cl)c(Cl)c2Cl)c1: -0.27
- Cc1cc2oc(=O)cc(-c3ccccc3)c2c(C)c1-c1ccc(OC(F)(F)F)cc1: -5.77
- C/C=C/C=C/C(=O)OCC(=O)Nc1ccc(Cl)cc1: -1.79
- COCc1c(C(=O)N/N=C/C2CC=CCC2)nnn1-c1nonc1N (stereo not given): -3.01
- CSCC[C@H](NC(=O)N1CCn2c1nc1ccccc12)C(=O)NC1CCCCC1: 0.83

Moving on to the next compound.
Record Cc1cc(C)c2nc(SCC(=O)N(C)C3CCS(=O)(=O)C3)cc(C)c2c1 (stereo not given) . Reported activity: 64
